Values were extracted from patent US12581252B2.

pIC50: recorded values
Molecular target: H1047R PIK3CA enzyme (Homo sapiens, UniProt P42336, H1047R)
Sequence (P42336 whole entry H1047R): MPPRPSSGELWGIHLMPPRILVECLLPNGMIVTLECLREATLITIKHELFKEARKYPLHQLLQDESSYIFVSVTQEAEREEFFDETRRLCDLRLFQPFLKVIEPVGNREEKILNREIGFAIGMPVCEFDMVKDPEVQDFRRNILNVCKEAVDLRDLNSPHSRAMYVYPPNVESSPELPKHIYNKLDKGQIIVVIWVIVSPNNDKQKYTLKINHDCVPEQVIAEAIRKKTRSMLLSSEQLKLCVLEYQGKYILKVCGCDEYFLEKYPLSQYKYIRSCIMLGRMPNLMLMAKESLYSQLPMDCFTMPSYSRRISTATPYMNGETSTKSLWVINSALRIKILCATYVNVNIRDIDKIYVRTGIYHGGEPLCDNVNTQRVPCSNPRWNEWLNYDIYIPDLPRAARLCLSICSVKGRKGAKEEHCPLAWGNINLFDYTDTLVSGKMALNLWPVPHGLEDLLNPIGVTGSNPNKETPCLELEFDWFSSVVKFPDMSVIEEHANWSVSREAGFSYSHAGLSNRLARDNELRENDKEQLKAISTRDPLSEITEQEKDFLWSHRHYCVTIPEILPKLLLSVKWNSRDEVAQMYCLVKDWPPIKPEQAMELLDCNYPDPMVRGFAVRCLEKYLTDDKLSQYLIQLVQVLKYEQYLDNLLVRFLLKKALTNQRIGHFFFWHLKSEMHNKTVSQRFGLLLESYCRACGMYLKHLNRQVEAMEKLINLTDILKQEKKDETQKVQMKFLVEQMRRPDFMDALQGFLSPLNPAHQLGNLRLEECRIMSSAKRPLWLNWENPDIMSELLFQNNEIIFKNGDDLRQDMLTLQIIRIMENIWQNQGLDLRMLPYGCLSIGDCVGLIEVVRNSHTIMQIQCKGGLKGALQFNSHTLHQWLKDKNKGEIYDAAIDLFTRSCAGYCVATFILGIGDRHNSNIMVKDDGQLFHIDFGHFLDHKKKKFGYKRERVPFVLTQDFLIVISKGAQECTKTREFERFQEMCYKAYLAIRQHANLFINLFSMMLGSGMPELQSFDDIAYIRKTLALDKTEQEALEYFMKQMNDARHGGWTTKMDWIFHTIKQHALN
Sequence (P27986 whole entry partner): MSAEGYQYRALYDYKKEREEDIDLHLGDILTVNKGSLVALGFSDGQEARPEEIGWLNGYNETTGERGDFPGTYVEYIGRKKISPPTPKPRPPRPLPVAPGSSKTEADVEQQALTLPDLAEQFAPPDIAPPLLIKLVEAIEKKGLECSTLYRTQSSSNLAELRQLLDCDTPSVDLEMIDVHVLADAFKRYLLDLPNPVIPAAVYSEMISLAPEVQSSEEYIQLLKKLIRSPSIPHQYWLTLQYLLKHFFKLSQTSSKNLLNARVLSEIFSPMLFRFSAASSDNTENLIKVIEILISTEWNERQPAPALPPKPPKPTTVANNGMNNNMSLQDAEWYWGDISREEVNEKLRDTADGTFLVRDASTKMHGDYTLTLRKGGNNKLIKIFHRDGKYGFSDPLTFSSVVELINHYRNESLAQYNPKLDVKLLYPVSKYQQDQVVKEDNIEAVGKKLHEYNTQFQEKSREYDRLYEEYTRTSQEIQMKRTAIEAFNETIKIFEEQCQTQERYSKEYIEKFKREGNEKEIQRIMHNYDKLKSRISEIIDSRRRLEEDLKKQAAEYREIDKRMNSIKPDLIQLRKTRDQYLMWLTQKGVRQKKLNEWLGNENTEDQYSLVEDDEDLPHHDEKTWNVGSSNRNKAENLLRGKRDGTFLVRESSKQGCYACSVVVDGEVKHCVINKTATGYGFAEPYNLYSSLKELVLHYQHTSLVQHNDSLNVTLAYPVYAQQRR
Experiment: ADP-Glo Biochemical PIK3CA Kinase Assay
Procedure: Compounds to be assayed were plated in 16 doses of 1:2 serial dilutions (20 nL volume each well) on a 1536-well plate, and the plate warmed to room temperature. […] To the well was added 1 μL of 200 μM ATP and 20 μM of diC8-PIP2 in Substrate Assay Buffer (50 mM HEPES pH7.4, 50 mM NaCl, 5 mM DTT and 0.03% CHAPS) to start the reaction, and the plate was shaken for 10 seconds, then spun briefly at 1500 rpm, and then incubated for 60 minutes at room temperature. […]
pIC50: −log10 of the molar value.

>>> print(df.to_string())
                                   compound                          target_or_system  experimental_result
0  N#Cc1cc(NC(=O)c2cc(F)cc(C(F)(F)F)c2)c2c(c1)C(=O)NC2c1cc(F)ccc1Cl (stereo not shown)  H1047R PIK3CA enzyme (Homo sapiens, UniProt P42336, H1047R)               ≥ 7.00

*Q* # get_value(readout='pIC50', item= `O=C(Nc1cc(-c2cn3ncnc3cn2)cc2c1[C@H](c1cc(F)ccc1Cl)NC2=O)c1cc(F)cc(C(F)(F)F)c1` )
*A* ≥ 7.00

*Q* # get_value(readout='pIC50', item= O=C(CC1CCCC(O)C1)Nc1cc(-c2ccc3ncnn3c2)cc2c1C(c1cc(F)ccc1Cl)NC2=O (stereo not shown) )
*A* 4.00 to 5.00

*Q* # get_value(readout='pIC50', item= `O=C(Nc1cc(Br)cc2c1[C@H](c1ccccc1C(F)F)NC2=O)c1cc(F)cc(C(F)(F)F)c1` )
*A* ≥ 7.00

*Q* # get_value(readout='pIC50', item= `O=C(CCC(F)(F)F)Nc1cccc2c1[C@@H](c1cc(F)ccc1Cl)NC2=O` )
*A* 4.00 to 5.00

*Q* # get_value(readout='pIC50', item= O=C1NC(c2cc(F)ccc2Cl)c2c(NC(=O)N3CC4C5CCC(C5)C43)cccc21 (stereo not shown) )
*A* 4.00 to 5.00

*Q* # get_value(readout='pIC50', item= O=C(Nc1cc(-c2ccccc2C(=O)O)cc2c1C(c1cc(F)ccc1Cl)NC2=O)c1cc(F)cc(C(F)(F)F)c1 (stereo not shown) )
*A* 6.30 to 7.00

----------
biological target: H1047R PIK3CA enzyme (Homo sapiens, UniProt P42336, H1047R); experiment: ADP-Glo Biochemical PIK3CA Kinase Assay
IC50: recorded values

// solved cases for IC50 follow
In [3]: df
Out[3]:
                                   compound                          target_or_system  readout_name  experimental_result
0  O=C1NC(c2cccc(F)c2F)c2c(NC(=O)c3coc4c(F)cc(F)cc34)ccnc21 (stereo not shown) [Compound I-210]  H1047R PIK3CA enzyme (Homo sapiens, UniProt P42336, H1047R)          IC50     1000 to 10000 nM
1  COc1ccc(C(=O)Nc2cc(Br)cc3c2C(c2cc(F)ccc2Cl)NC3=O)cc1C(F)(F)F (stereo not shown) [Compound I-877]  H1047R PIK3CA enzyme (Homo sapiens, UniProt P42336, H1047R)          IC50       500 to 1000 nM

Now, please, on to the next compound.
*Q* # get_value(readout='IC50', item= O=C(Nc1cc(N2CCS(=O)(=O)CC2)cc2c1C(c1cc(F)ccc1Cl)NC2=O)c1cc(F)cc(C(F)(F)F)c1 (stereo not shown) [Compound I-1248] )
*A* ≤ 100 nM
